EXPERIMENT NOTES: Cytostatic effect on NHDF cells in the anti-HCMV cytopathogenicity test
Type: cell-based
SETTINGS: NHDF cells (human prepuce fibroblasts), 6 days incubation, visual assessment, concentration at which no visible cytostatic effects are evident vs untreated cell control
Experimental: Anti-HCMV (Anti-human Cytomegalovirus) Cytopathogenicity Tests The test compounds are employed as 50 millimolar (mM) solutions in dimethyl sulfoxide (DMSO). Ganciclovir®, Foscamet® and Cidofovir® are used as reference compounds. […] The plates are then assessed visually using an overhead microscope (plaque multiplier from Technomara). […]
Counter-ions that a name gives are not always drawn.
PARAMETER: CC50 at 6 days (µM)
Please state the figure in µM; there is no need to write the unit.

Task: Specify measured CC50 at 6 days for C[C@@H]1CN(c2c(F)cc3c(=O)c(C(=O)NCc4ccc(Cl)cc4Cl)cn(C4CC4)c3c2Cl)C[C@H](C)N1 [Example 5] .
Result: 6

Task: Fill in CC50 at 6 days for record COc1c(N2C[C@@H](C)N[C@@H](C)C2)c(F)cc2c(=O)c(C(=O)NCc3ccc(Cl)cc3Cl)cn([C@@H](C)C(F)(F)F)c12 [Example 45]
Result: 2.4

Task: Quickly give me recorded CC50 at 6 days for COc1c(N2C[C@@H](C)N(C(=O)CN)[C@@H](C)C2)c(F)cc2c(=O)c(C(=O)NCc3ccc(Cl)cc3Cl)cn(C3CC3)c12 [Example 79, hydrochloride]
Result: 7.7

Task: Please supply the value of reported CC50 at 6 days for the item COc1c(N2C[C@@H](C)N[C@@H](C)C2)c(F)cc2c(=O)c(C(=O)NCc3ccc(Cl)cc3Cl)cn(C3CCC3)c12 [Example 40]
Result: 11

Task: Could you please provide reported CC50 at 6 days for COc1c(N2C[C@@H](C)N[C@@H](C)C2)c(F)cc2c(=O)c(C(=O)NCc3ccc(Cl)cc3Cl)cn([C@H]3C[C@H]3F)c12 [Example 34] ? Thanks!
Result: 8.4

Task: Item COc1c(N2C[C@@H](C)N[C@@H](C)C2)c(F)cc2c(=O)c(C(=O)NCc3ccc(Cl)cc3Cl)cn(CC(F)F)c12 [Example 35] : provide CC50 at 6 days
Result: 4.8

Task: Return CC50 at 6 days (reported value) for this compound: COc1c(N2C[C@@H](C)N(CC(=O)N(C)C)[C@@H](C)C2)c(F)cc2c(=O)c(C(=O)NCc3ccc(Cl)cc3Cl)cn(CC(F)(F)F)c12 [Example 54]
Result: 21

Task: Note down CC50 at 6 days recorded for COc1c(N2C[C@@H](C)N(C[C@@H](O)CO)[C@@H](C)C2)c(F)cc2c(=O)c(C(=O)NCc3ccc(Cl)cc3Cl)cn(C3CC3)c12 [Example 92]
Result: 5.3

Task: Kindly indicate its recorded CC50 at 6 days. Item: Cc1cc(Cl)ccc1CNC(=O)c1cn(C2CC2)c2c(Cl)c(N3CCN(CCOCCO)CC3)c(F)cc2c1=O [Example 8]
Result: 7.7

Task: Consider the compound COc1c(N2C[C@@H](C)N(CC(N)=O)[C@@H](C)C2)c(F)cc2c(=O)c(C(=O)NCc3ccc(Cl)cc3Cl)cn(CC(F)(F)F)c12 [Example 53] . State its measured CC50 at 6 days.
Result: 4.3

Task: Specify CC50 at 6 days for COc1c(N2C[C@@H](C)N[C@@H](C)C2)c(F)cc2c(=O)c(C(=O)NCc3ccc(Cl)cc3Cl)cn([C@@H]3C[C@@H]3F)c12 (mixture of isomers) [Example 16] and stop.
Result: 7.8

Task: Look up and report measured CC50 at 6 days for this entry: COc1c(N2C[C@@H](C)N[C@@H](C)C2)c(F)cc2c(=O)c(C(=O)NCc3ccc(OC(F)(F)F)cc3Cl)cn(CC(F)(F)F)c12 [Example 51]
Result: 5.3

Task: Provide only the value of recorded CC50 at 6 days for COc1c(N2C[C@@H](C)N[C@@H](C)C2)c(F)cc2c(=O)c(C(=O)NCc3ccc(C(F)(F)F)cc3C)cn(C3CC3)c12 [Example 24]
Result: 4.7

* * *

EXPERIMENT NOTES: Cytostatic effect on NHDF cells in the anti-HCMV cytopathogenicity test
Type: cell-based
SETTINGS: NHDF cells (human prepuce fibroblasts), 6 days incubation, visual assessment, concentration at which no visible cytostatic effects are evident vs untreated cell control
Provide the recorded CC50 at 6 days for the entries that follow.

Task: Please supply the value of reported CC50 at 6 days for the item COc1c(N2CCN(CCC(N)=O)C(C)C2)c(F)cc2c(=O)c(C(=O)NCc3ccc(Cl)cc3Cl)cn(C3CC3)c12 (stereo not drawn)
Result: 2.6 µM

Task: Respond only with CC50 at 6 days recorded for COc1c(N2C[C@@H](C)N[C@@H](C)C2)c(F)cc2c(=O)c(C(=O)NCc3ccc(Cl)cc3Cl)cn(CCF)c12
Result: 6.1 µM

Task: Query CC50 at 6 days for O=C(NCc1ccc(Cl)cc1Cl)c1cn(C2CC2)c2c(Cl)c(N3CCCN(CCO)CC3)c(F)cc2c1=O
Result: 2.5 µM

Task: Assign CC50 at 6 days to the following record: COc1c(N2C[C@@H](C)N[C@@H](C)C2)c(F)cc2c(=O)c(C(=O)NCc3ccc(OC(F)(F)F)cc3C)cn(CC(F)(F)F)c12
Result: 7.7 µM

Task: Please report CC50 at 6 days for the following compound: COc1ccc(CNC(=O)c2cn(C3CC3)c3c(OC)c(N4C[C@@H](C)N[C@@H](C)C4)c(F)cc3c2=O)c(Cl)c1
Result: 8.4 µM

Task: Specify CC50 at 6 days for COc1c(N2C[C@@H](C)N(CC(=O)NS(C)(=O)=O)[C@@H](C)C2)c(F)cc2c(=O)c(C(=O)NCc3ccc(OC(F)(F)F)cc3C)cn(CC(F)(F)F)c12 and stop.
Result: 24 µM

All figures here come from patent US7867992B2.
